TEST PROTOCOL: Pharmacokinetic study of rivaroxaban in rats, alone and with ribociclib (UPLC-MS/MS plasma levels)
Assay type: in vivo, Sprague-Dawley rats
PARTICULARS: Sprague-Dawley, rat, plasma, po, 2 mg/kg, RIVA 2 mg/kg + timed RIBO (12 h), RIBO 60 mg/kg for 8 days
MEASURE: Tmax

Provide only the value of recorded Tmax for O=C(NC[C@H]1CN(c2ccc(N3CCOCC3=O)cc2)C(=O)O1)c1ccc(Cl)s1 3 h

###

TEST PROTOCOL: Pharmacokinetic study of rivaroxaban in rats, alone and with ribociclib (UPLC-MS/MS plasma levels)
Format: in vivo, Sprague-Dawley rats
PARTICULARS: Sprague-Dawley, rat, plasma, po, 2 mg/kg, oral RIVA 2 mg/kg alone, read-out: MRT0-t
MEASURE: MRT last (h)
Numbers only, in h.

Dear colleague, please send me the reported MRT last for O=C(NC[C@H]1CN(c2ccc(N3CCOCC3=O)cc2)C(=O)O1)c1ccc(Cl)s1 when you can. 3.46
